# methodNotes: Metabolic stability in mouse plasma
# Format: in vitro ADME
# appliedConditions: 10 μM, 37° C., 60 min
Quick reference: Percentage remaining of the listed items.
Field format: number, assumed %, no unit text.

1. CC(C)OC(=O)OCOP(=O)(CC(CCC(=O)O)C(=O)OCC(=O)N(C)C)OCOC(=O)OC(C)C (stereo not shown) = 0
2. CC(C)OC(=O)OCOC(=O)C(CCC(=O)O)CP(=O)(OCOC(=O)OC(C)C)OCOC(=O)OC(C)C (stereo not shown) = 0
3. CC(C)OC(=O)OC(C)OP(=O)(CC(CCC(=O)O)C(=O)OCC(=O)N(C)C)OC(C)OC(=O)OC(C)C (stereo not shown) = 1

Could you now consider this next compound?
Input CCOCCOCCOCCOCCOCCOCCOP(=O)(CC(CCC(=O)OC)C(=O)OC)OCCOCCOCCOCCOCCOCCOCC (stereo not shown) . Output Percentage remaining: 1

###

# methodNotes: Chemical stability in HBSS buffer (pH 7.4) / simulated gastric fluid
# Assay type: physicochemical
# appliedConditions: chemical hydrolysis / HBSS buffer
readoutName: chemical stability

1) CC(C)OC(=O)OCOP(=O)(CC(CCC(=O)O)C(=O)O)OCOC(=O)OC(C)C (centres unmarked) = chemical instability
2) CC(C)(C)C(=O)OCOP(=O)(CC(CCC(=O)O)C(=O)O)OCOC(=O)C(C)(C)C (centres unmarked) = chemical instability

###

# methodNotes: Metabolic stability in mouse liver S9
# Type: in vitro ADME
# appliedConditions: Mouse S9, 10 μM, 37° C., 30 min
readoutName: Percentage remaining (%)
Field format: number, assumed %, no unit text.

Solved cases (2 shown):
1. COC(=O)CCC(CP(=O)(OCOC(=O)OC(C)C)OCOC(=O)OC(C)C)C(=O)OC (stereo not shown) [Compound 6] = 1
2. COC(=O)CCC(CP(=O)(O)O)C(=O)OC (stereo not shown) [Compound 1] = 101

Input CCOC(=O)CCC(CP(=O)(OCOC(=O)C(C)(C)C)OCOC(=O)C(C)(C)C)C(=O)OCC (stereo not shown) [Compound 18] . Output Percentage remaining: 1

Input CCCCOC(=O)c1ccccc1OP(=O)(CC(CCC(=O)OC)C(=O)OC)Oc1ccccc1C(=O)OCCCC (stereo not shown) [Compound 16] . Output Percentage remaining: 1

###

# methodNotes: Metabolic stability in mouse liver microsomes
# Format: in vitro ADME
# appliedConditions: 10 μM, 37° C., 60 min
Param label: returns 1.0 when Percentage remaining < 20%, returns 0.0 otherwise, including exact equality.

1. CC(C)OC(=O)OC(C)OC(=O)C(CCC(=O)O)CP(=O)(OC(C)OC(=O)OC(C)C)OC(C)OC(=O)OC(C)C (stereo not drawn) [Compound 24] = 1.0
2. COC(=O)CCC(CP(=O)(OCOC(=O)C(C)(C)C)OCOC(=O)C(C)(C)C)C(=O)OC (stereo not drawn) [Compound 14] = 1.0
3. CCOC(=O)CCC(CP(=O)(OCOC(=O)C(C)(C)C)OCOC(=O)C(C)(C)C)C(=O)OCC (stereo not drawn) [Compound 18] = 1.0
4. COC(=O)CCC(CP(=O)(O)O)C(=O)OC (stereo not drawn) [Compound 1] = 0.0
5. COC(=O)CCC(CP(=O)(OCOC(=O)OC(C)C)OCOC(=O)OC(C)C)C(=O)OC (stereo not drawn) [Compound 6] = 1.0

Turning to the following compound.
Dear reviewer, please state whether CC(C)OC(=O)OC(C)OP(=O)(CC(CCC(=O)O)C(=O)OCC(=O)N(C)C)OC(C)OC(=O)OC(C)C (stereo not drawn) [Compound 26] has Percentage remaining strictly beneath 20%.
0.0

###

# methodNotes: Metabolic stability in mouse liver microsomes
# Assay type: in vitro ADME
# appliedConditions: 10 μM, 37° C., 60 min
# Protocol: For metabolic stability, plasma (mouse, dog, monkey and human) and liver microsomes (mouse, dog, monkey and human) were used. For stability, prodrugs (10 μM) were spiked in each matrix and incubated in an orbital shaker at 37° C. […] Prodrug disappearance was monitored over time using a liquid chromatography and tandem mass spectrometry (LC/MS/MS) method as described below. […] For quantification of compound remaining, disappearance of prodrugs was measured from ratio of peak areas of analyte to IS. […]
Quick reference: Percentage remaining of the listed items.
Field format: number, assumed %, no unit text.

Solved cases (5 shown):
1) CCCCOC(=O)c1ccccc1OP(=O)(CC(CCC(=O)OC)C(=O)OC)Oc1ccccc1C(=O)OCCCC (stereo not drawn) = 2
2) CCOCCOCCOCCOCCOCCOCCOP(=O)(CC(CCC(=O)OC)C(=O)OC)OCCOCCOCCOCCOCCOCCOCC (stereo not drawn) = 100
3) CCOC(=O)CCC(CP(=O)(O)O)C(=O)OCC (stereo not drawn) = 88
4) CC(C)OC(=O)OCOP(=O)(CC(CCC(=O)O)C(=O)OCC(=O)N(C)C)OCOC(=O)OC(C)C (stereo not drawn) = 22
5) CCOC(=O)[C@H](Cc1ccccc1)NP(=O)(CC(CCC(=O)OC)C(=O)OC)N[C@@H](Cc1ccccc1)C(=O)OCC (stereo partly drawn) = 0.1

Could you now consider this next compound?
Input CC(C)OC(=O)OCOC(=O)C(CCC(=O)O)CP(=O)(OCOC(=O)OC(C)C)OCOC(=O)OC(C)C (stereo not drawn) . Output Percentage remaining: 0
